Quick reference for relative IC50 among some compounds
# Test system: KAI3 (IL-2 2.5 ng/mL)
# Test name: relative IC50 (inflection point of fitted viability curve, relative to fitted max inhibition); higher = less sensitive
# Condition summary: 72 h
Assay endpoint: relative IC50 (nM)

{"Compound": "COc1cccc2c1C(=O)c1c(O)c3c(c(O)c1C2=O)C[C@@](O)(C(C)=O)C[C@@H]3O[C@H]1C[C@H](N)[C@H](O)[C@H](C)O1 [Daunorubicin]", "Assay endpoint": "relative IC50", "Observed result": 54.5}
{"Compound": "O=C1NC(=O)/C(=C/c2ccc3nccc(-c4ccncc4)c3c2)S1", "Assay endpoint": "relative IC50", "Observed result": 846}
{"Compound": "COc1cc(Nc2ncc3c(n2)-c2ccc(Cl)cc2C(c2c(F)cccc2OC)=NC3)ccc1C(=O)O [Alisertib]", "Assay endpoint": "relative IC50", "Observed result": 116}
{"Compound": "CO[C@H]1C[C@@H]2CC[C@@H](C)[C@@](O)(O2)C(=O)C(=O)N2CCCC[C@H]2C(=O)O[C@H]([C@H](C)C[C@@H]2CC[C@@H](OC(=O)C(C)(CO)CO)[C@H](OC)C2)CC(=O)[C@H](C)/C=C(\\C)[C@@H](O)[C@@H](OC)C(=O)[C@H](C)C[C@H](C)/C=C/C=C/C=C/1C [Temsirolimus]", "Assay endpoint": "relative IC50", "Observed result": 0.5}
{"Compound": "CC(=O)NCC(=O)N1[C@@H]2CC[C@H]1c1ccc(Nc3ncc(C(F)(F)F)c(NC4CCC4)n3)cc12", "Assay endpoint": "relative IC50", "Observed result": 95}
{"Compound": "Cc1sc2c(c1C)C(c1ccc(Cl)cc1)=N[C@@H](CC(=O)Nc1ccc(O)cc1)c1nnc(C)n1-2 [OTX015]", "Assay endpoint": "relative IC50", "Observed result": 437}
{"Compound": "C=CC(=O)Nc1cc2c(Nc3ccc(F)c(Cl)c3)ncnc2cc1OCCCN1CCOCC1 [Canertinib]", "Assay endpoint": "relative IC50", "Observed result": 1100}
{"Compound": "CCn1c(-c2nonc2N)nc2cnc(Oc3cccc(NC(=O)c4ccc(OCCN5CCOCC5)cc4)c3)cc21", "Assay endpoint": "relative IC50", "Observed result": 1280}
{"Compound": "CCS(=O)(=O)c1cccc(-c2cc(C(=O)NC3CCN(C)CC3)c(C)c3[nH]c4ncc(C)cc4c23)c1 [TAK-901]", "Assay endpoint": "relative IC50", "Observed result": 116}

----------
Overview of recorded percent inhibition of viability for various compounds
# System: KAI3 (IL-2 2.5 ng/mL)
# Test name: percent inhibition of viability; higher = more inhibition
# Condition summary: 72 h; 100 nM
Assay endpoint: percent inhibition of viability

{"Compound": "OC[C@H]1O[C@@H](n2cnc3c2N=CNC[C@H]3O)C[C@@H]1O [Pentostatin] (max concentration tested 10000 nM)", "Target desc": "KAI3 (IL-2 2.5 ng/mL)", "Observed result": "-2.67%"}
{"Compound": "C=CC[C@@H]1/C=C(\\C)C[C@H](C)C[C@H](OC)[C@H]2O[C@@](O)(C(=O)C(=O)N3CCCC[C@H]3C(=O)O[C@H](/C(C)=C/[C@@H]3CC[C@@H](O)[C@H](OC)C3)[C@H](C)[C@@H](O)CC1=O)[C@H](C)C[C@@H]2OC [Tacrolimus] (max concentration tested 10000 nM)", "Target desc": "KAI3 (IL-2 2.5 ng/mL)", "Observed result": "5.19%"}
